- test-system: SARS-CoV-2 nucleocapsid N-terminal RNA-binding domain (NTD) (SARS-CoV-2, UniProt P0DTC9 46-174)
- test-details: EMSA competition; vs 32P-probe RNA; n=7
- measurement-setup: protein: recombinant; tags: His-tag (pET-15b)
measurement-name: IC50 (µM)
One number for each entry, in µM.

The recorded IC50 for entry CCGGCG (ssRNA) [In-1] equals 34.3
